- Test System: N-acylethanolamine-hydrolyzing acid amidase (Homo sapiens, UniProt Q02083)
- Sequence (Q02083 whole entry): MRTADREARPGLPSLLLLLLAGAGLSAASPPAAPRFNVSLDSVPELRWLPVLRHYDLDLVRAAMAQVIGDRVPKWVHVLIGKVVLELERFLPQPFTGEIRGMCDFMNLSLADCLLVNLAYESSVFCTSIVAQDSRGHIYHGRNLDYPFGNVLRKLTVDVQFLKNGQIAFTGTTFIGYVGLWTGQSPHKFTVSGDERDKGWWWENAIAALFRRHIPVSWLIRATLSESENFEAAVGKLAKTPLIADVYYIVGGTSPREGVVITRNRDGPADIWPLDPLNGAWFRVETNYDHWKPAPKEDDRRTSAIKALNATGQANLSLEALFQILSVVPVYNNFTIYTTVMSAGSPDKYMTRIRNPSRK
- Assay Name: Inhibition of human NAAA using N-(4-methyl coumarin)-palmitamide as fluorogenic substrate preincubated for 90 mins followed by substrate addition by fluorescence assay
Overview of reported pIC50 across a group of molecules:
# pIC50 is unitless: minus log10 of the molar concentration; print number only

Known results for molecules:
> print(dat)
                                   compound  result.type  experimental.result
1  COc1ccc(-c2ccc3c(c2)CN([C@H]2C[C@@H](N=C=S)C2)C3)cc1F        pIC50                 7.13
2  COc1ccc(-c2ccc(C(=O)N[C@H]3C[C@@H](N=C=S)C3)nc2)cc1F        pIC50                 7.58
3  COc1ccc(-c2ccc(CO[C@H]3C[C@@H](N=C=S)C3)c(F)c2)cc1F        pIC50                 7.69
4  COc1ccc(N2CCC(C(=O)N[C@H]3C[C@@H](N=C=S)C3)CC2)cc1        pIC50                 6.86

Now take the following molecule into account.
Enter pIC50 (test system N-acylethanolamine-hydrolyzing acid amidase (Homo sapiens, UniProt Q02083)) for `COc1ccc(-c2ccc(CO[C@H]3C[C@@H](N=C=S)C3)nc2)cc1F` 7.70
